# assay_target: Peroxisome proliferator-activated receptor gamma (Homo sapiens) (UniProt P37231)
# Sequence (P37231 whole entry, looked up): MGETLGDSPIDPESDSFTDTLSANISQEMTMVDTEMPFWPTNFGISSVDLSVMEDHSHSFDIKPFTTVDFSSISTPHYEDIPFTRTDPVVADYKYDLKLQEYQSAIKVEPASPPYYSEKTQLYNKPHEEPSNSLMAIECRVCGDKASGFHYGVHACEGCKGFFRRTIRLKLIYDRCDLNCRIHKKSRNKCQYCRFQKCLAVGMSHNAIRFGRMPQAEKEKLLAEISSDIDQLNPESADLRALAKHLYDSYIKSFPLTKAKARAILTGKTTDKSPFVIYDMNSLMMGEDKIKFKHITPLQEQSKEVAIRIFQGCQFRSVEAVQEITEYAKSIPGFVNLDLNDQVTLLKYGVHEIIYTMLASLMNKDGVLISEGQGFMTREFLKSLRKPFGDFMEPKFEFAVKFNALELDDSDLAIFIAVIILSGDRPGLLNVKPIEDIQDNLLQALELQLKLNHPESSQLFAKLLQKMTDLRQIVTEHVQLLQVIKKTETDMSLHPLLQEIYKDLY
# test_details: ATG_PPARg_TRANS: Attagene TRANS-FACTORIAL HepG2 Assay for human Peroxisome Proliferator-activated Receptor-gamma (PPARg) (AID 2283007)
Records with an inconclusive call do not appear. The source made the active and inactive calls. How the source made its calls: active means hit-call score of the fitted dose curve at least 0.9, where 1 is the maximum; inconclusive means response in the unintended direction; inactive means score below 0.9.
Classes used: T = active, F = inactive

# molecule, assay_target, label_class
measured = [
    ("c1ccc(Nc2cccc3ccccc23)cc1", "Peroxisome proliferator-activated receptor gamma (Homo sapiens) (UniProt P37231)", "T"),
    ("CCC1(C)C(=O)N(Cl)C(=O)N1Cl (centres undefined)", "Peroxisome proliferator-activated receptor gamma (Homo sapiens) (UniProt P37231)", "F"),
    ("C=Cc1cccc(C)c1", "Peroxisome proliferator-activated receptor gamma (Homo sapiens) (UniProt P37231)", "F"),
    ("CC(C)c1cc(C(C)C)cc(C(C)C)c1", "Peroxisome proliferator-activated receptor gamma (Homo sapiens) (UniProt P37231)", "F"),
    ("C=CCOC(=O)c1ccc(C(=O)OCC=C)c(C(=O)OCC=C)c1", "Peroxisome proliferator-activated receptor gamma (Homo sapiens) (UniProt P37231)", "T"),
    ("CCCCCCCCCCCCC", "Peroxisome proliferator-activated receptor gamma (Homo sapiens) (UniProt P37231)", "F"),
    ("CC(=O)/C=C/C1C(C)=CCCC1(C)C (centres undefined)", "Peroxisome proliferator-activated receptor gamma (Homo sapiens) (UniProt P37231)", "T"),
    ("CCC(C)(O)CCCC(C)C (centres undefined)", "Peroxisome proliferator-activated receptor gamma (Homo sapiens) (UniProt P37231)", "F"),
    ("CO[Si](C)(C)OC", "Peroxisome proliferator-activated receptor gamma (Homo sapiens) (UniProt P37231)", "F"),
    ("CC1CCC(C(C)(C)S)C(=O)C1 (centres undefined)", "Peroxisome proliferator-activated receptor gamma (Homo sapiens) (UniProt P37231)", "T"),
    ("O=c1c(O)c(-c2ccc(O)cc2O)oc2cc(O)cc(O)c12", "Peroxisome proliferator-activated receptor gamma (Homo sapiens) (UniProt P37231)", "F"),
    ("C=CC(=O)O[C@H]1C[C@@H]2CC[C@@]1(C)C2(C)C", "Peroxisome proliferator-activated receptor gamma (Homo sapiens) (UniProt P37231)", "F"),
    ("CCC(C)C(=O)OC (centres undefined)", "Peroxisome proliferator-activated receptor gamma (Homo sapiens) (UniProt P37231)", "F"),
    ("O=C(O[C@@H]1Cc2c(O)cc(O)cc2O[C@@H]1c1cc(O)c(O)c(O)c1)c1cc(O)c(O)c(O)c1", "Peroxisome proliferator-activated receptor gamma (Homo sapiens) (UniProt P37231)", "F"),
    ("CCc1cccc(C)c1N", "Peroxisome proliferator-activated receptor gamma (Homo sapiens) (UniProt P37231)", "F"),
    ("C=C(C)C(=O)OCCCCCCCCCCCC", "Peroxisome proliferator-activated receptor gamma (Homo sapiens) (UniProt P37231)", "T"),
    ("CCCCC/C=C\\C/C=C\\CCCCCCCC(=O)O", "Peroxisome proliferator-activated receptor gamma (Homo sapiens) (UniProt P37231)", "T"),
    ("CCCCCCCCCCCC(C)=O", "Peroxisome proliferator-activated receptor gamma (Homo sapiens) (UniProt P37231)", "T"),
    ("CCCCCCCCC(CO)CCCCCC (centres undefined)", "Peroxisome proliferator-activated receptor gamma (Homo sapiens) (UniProt P37231)", "F"),
    ("CC1CCC(=O)C1=O (centres undefined)", "Peroxisome proliferator-activated receptor gamma (Homo sapiens) (UniProt P37231)", "F"),
    ("O=C(Oc1ccccc1)c1ccccc1O", "Peroxisome proliferator-activated receptor gamma (Homo sapiens) (UniProt P37231)", "F"),
    ("COC(C=C(C)CCC=C(C)C)OC", "Peroxisome proliferator-activated receptor gamma (Homo sapiens) (UniProt P37231)", "T"),
    ("CC(CC=O)CC(C)(C)C (centres undefined)", "Peroxisome proliferator-activated receptor gamma (Homo sapiens) (UniProt P37231)", "F"),
    ("C=C(C)C1CC=C(C)C(OC(C)=O)C1 (centres undefined)", "Peroxisome proliferator-activated receptor gamma (Homo sapiens) (UniProt P37231)", "F"),
    ("CC1(C)CC(O)CC(C)(C)N1[O]", "Peroxisome proliferator-activated receptor gamma (Homo sapiens) (UniProt P37231)", "F"),
    ("C=C[C@@]1(C)CC(=O)[C@]2(O)[C@@]3(C)[C@@H](O)CCC(C)(C)[C@@H]3[C@H](O)[C@H](OC(C)=O)[C@@]2(C)O1", "Peroxisome proliferator-activated receptor gamma (Homo sapiens) (UniProt P37231)", "T"),
    ("CCCCCCCCCCCC(=O)OCC", "Peroxisome proliferator-activated receptor gamma (Homo sapiens) (UniProt P37231)", "F"),
    ("Cc1ccc(S(=O)(=O)N=C=O)cc1", "Peroxisome proliferator-activated receptor gamma (Homo sapiens) (UniProt P37231)", "F"),
    ("CCCC1CCCC(=O)O1 (centres undefined)", "Peroxisome proliferator-activated receptor gamma (Homo sapiens) (UniProt P37231)", "T"),
    ("Cc1cccc(C(C)(C)C)c1O", "Peroxisome proliferator-activated receptor gamma (Homo sapiens) (UniProt P37231)", "F"),
    ("CC(C)[N+](C)(CCOC(=O)C1c2ccccc2Oc2ccccc21)C(C)C", "Peroxisome proliferator-activated receptor gamma (Homo sapiens) (UniProt P37231)", "T"),
    ("CCCCOCC(C)O (centres undefined)", "Peroxisome proliferator-activated receptor gamma (Homo sapiens) (UniProt P37231)", "F"),
    ("CCOC(=O)c1ccc(C)cc1", "Peroxisome proliferator-activated receptor gamma (Homo sapiens) (UniProt P37231)", "F"),
    ("C[N+](C)(C)CCCNS(=O)(=O)C(F)(F)C(F)(F)C(F)(F)C(F)(F)C(F)(F)C(F)(F)C(F)(F)C(F)(F)F", "Peroxisome proliferator-activated receptor gamma (Homo sapiens) (UniProt P37231)", "F"),
    ("CC=C(C)C=CC=C(C)C", "Peroxisome proliferator-activated receptor gamma (Homo sapiens) (UniProt P37231)", "T"),
    ("CC(=O)CCC1=C(C)CCCC1(C)C", "Peroxisome proliferator-activated receptor gamma (Homo sapiens) (UniProt P37231)", "F"),
    ("Oc1c(Cl)cc(Cl)c(Cl)c1Cl", "Peroxisome proliferator-activated receptor gamma (Homo sapiens) (UniProt P37231)", "T"),
    ("CCCCCCCCCCCC(=O)N(C)CC(=O)O", "Peroxisome proliferator-activated receptor gamma (Homo sapiens) (UniProt P37231)", "T"),
    ("Cc1cc(C)n(CO)n1", "Peroxisome proliferator-activated receptor gamma (Homo sapiens) (UniProt P37231)", "F"),
    ("CC(=O)c1ccccc1O", "Peroxisome proliferator-activated receptor gamma (Homo sapiens) (UniProt P37231)", "F"),
    ("CC1=CC=C(C(C)C)CC1", "Peroxisome proliferator-activated receptor gamma (Homo sapiens) (UniProt P37231)", "F"),
    ("CC/C=C\\CCOC(=O)c1ccccc1O", "Peroxisome proliferator-activated receptor gamma (Homo sapiens) (UniProt P37231)", "T"),
    ("CCN1CCCC1=O", "Peroxisome proliferator-activated receptor gamma (Homo sapiens) (UniProt P37231)", "F"),
    ("CCCCCCCC(=O)OCC", "Peroxisome proliferator-activated receptor gamma (Homo sapiens) (UniProt P37231)", "F"),
]
